Tested on: Plasmodium falciparum
Test: GSK_TCMDC: Inhibition of Plasmodium falciparum 3D7 in whole red blood cells, using parasite LDH activity as an index of growth. Test compounds present at 2uM
Format: functional
Metric name: Inhibition
Express your answer as a number followed by its unit.

Some solved entries appear below for comparison.
CS(=O)(=O)CCNCc1nc(-c2ccc3c(=O)[nH]cnc3c2)cs1 = 86%
O=C(Nc1cccc(C(F)(F)F)c1)Nc1ccc(Cl)c(C(F)(F)F)c1 = 99%
O=C(O)C(F)(F)F.c1ccc2[nH]c(-c3ccc(-c4ccc(CNCCc5ccncc5)cc4)s3)nc2c1 = 100%
O=C(Nc1cccc(-c2ccc(-c3nc4cc(C(F)(F)F)ccc4[nH]3)s2)c1)c1c[nH]cn1 = 89%
Cl.NCc1ccc(-c2ccc3c(N)nccc3c2)cc1 = 100%

[Q] Requested field: Inhibition. Item: `Cc1ccc2nc(N/C(N)=N/C(=O)NC3CCCCC3)nc(C)c2c1`
[A] 99%

[Q] Next compound: `N#Cc1cnc(Nc2ccc(Oc3ccccc3)cc2)nc1Nc1cccc(S(N)(=O)=O)c1`
[A] 96%

[Q] Next compound: `CCOC(=O)NC1=NC(C)(C)N(OCc2ccc(Cl)c(Cl)c2)C(NC(=O)OCC)=N1`
[A] 98%

[Q] Next compound: CCn1nc(C(=O)NC2CCOc3ccccc32)c2ccccc2c1=O (stereo not given)
[A] 86%

[Q] Next compound: `Cc1nnc(Sc2ncnc3scc(-c4ccc(F)cc4)c23)s1`
[A] 99%
